assay_text: photoluminescence quantum yield (fraction); solvent given as SMILES
condition_details: in CO
The label depends only on photoluminescence quantum yield: 1 if it is at least 0.6, -1 if it is smaller.

Worked examples follow.
Kindly determine if photoluminescence quantum yield recorded for CCC1=C(C)C2=Cc3c4ccccc4c4n3[B-](c3cc[n+](C)cc3)(Oc3ccccc3-4)[N+]2=C1C (stereo not given) is above or exactly 0.6.
-1

Hello, I need to know if `CCC1=C(C)C(=O)n2c1cc1c(C)c(CC(=O)O)c(C)n1c2=O` has measured photoluminescence quantum yield not below 0.6. Thanks!
1

Assess whether reported photoluminescence quantum yield for `O=c1oc2ccccc2cc1-c1nc2ccccc2o1` sits at 0.6 or higher.
1

Has `[C-]#[N+]c1ccc(-c2ccc(N)cc2)cc1` a recorded photoluminescence quantum yield greater than or equal to 0.6?
-1

Now for a further compound.
Decide: photoluminescence quantum yield of `CCc1c(C)c2n(c1C)[B-](F)(F)[N+]1=C(c3ccc[nH]3)c3ccccc3C1=C2` >= 0.6?
1

----------
Listing: photoluminescence quantum yield of selected molecules
assay_text: photoluminescence quantum yield (fraction); solvent given as SMILES
condition_details: in CC#N
Number only, no unit.

Which photoluminescence quantum yield value is on record for Brc1ccc(-c2pc3ccccc3s2)cc1 (stereo unspecified) ?
0.032

More entries:
Please report the recorded photoluminescence quantum yield for `Cc1cccc2nc3c(=O)n(C)c(=O)nc-3n(C)c12` .
0.07

Any idea what photoluminescence quantum yield was measured for `Cn1cc(-c2nc3ccccc3nc2/C=C/N2CCCC2)c2ccccc21` ?
0.43

I have this molecule here, `C(=C\c1nc2ccccc2[nH]1)/c1ccc(/C=C/c2nc3ccccc3[nH]2)cc1` , and I need its recorded photoluminescence quantum yield.
0.679

Tell me the measured photoluminescence quantum yield of CCN1C(=O)C(C2C(=O)c3c4ccccc4cc4cc5ccccc5c2c34)SC1=S (stereo unspecified) , please.
0.135

----------
assay_text: photoluminescence quantum yield (fraction); solvent given as SMILES
condition_details: in CCO
Measured photoluminescence quantum yield, listed per entry.
Just the number.

Worked examples follow.
Report photoluminescence quantum yield for `COc1ccc(/C=C/C2=NC(=C\c3ccncc3)/C(=O)N2C)cc1` please.
0.0027

Which value of photoluminescence quantum yield has been reported for `CCOC(=O)c1cc(C(=O)OCC)c2ccc(N(C)C)cc2n1` in the records?
0.41

***
Look up photoluminescence quantum yield for this molecule: `CCCCCCCN1C(=CC2=C([O-])C(=Cc3sc4ccccc4[n+]3CCCCCCC)C2=C(C#N)C#N)Sc2ccccc21`
0.14

Which value of photoluminescence quantum yield has been reported for NS(=O)(=O)c1ccc(N2N=C(c3ccc(O)cc3)CC2c2ccc([N+](=O)[O-])cc2)cc1 (centres undefined) in the records?
0.01

----------
assay_text: photoluminescence quantum yield (fraction); solvent given as SMILES
condition_details: in Cc1ccccc1
So basically: is photoluminescence quantum yield under 0.4? Then Yes. Not under? Then No.

Here are 6 compounds together with their reported answers.
Criterion: photoluminescence quantum yield strictly below 0.4. Is it met by `CC(C)(C)c1ccc2c(c1)sc1[n+]2[B-](F)(F)n2c(c3cccc4cccc2c43)=C1C#N` ?
No

Report whether reported photoluminescence quantum yield is lower than 0.4 (strictly) for `COc1cccc(C2=c3c(c4ccc(C(C)(C)C)cc4c4cc(C(C)(C)C)ccc34)=[N+]3C2=C(c2ccccc2)c2c(-c4cccc(OC)c4)c4c5ccc(C(C)(C)C)cc5c5cc(C(C)(C)C)ccc5c4n2[B-]3(F)F)c1`
No

Regarding `CCOC(=O)COc1ccc(/C=C/C2=C3c4ccccc4C(c4ccc[nH]4)=[N+]3[B-](F)(F)n3ccc(C)c32)cc1` , kindly confirm whether its photoluminescence quantum yield is beneath 0.4.
Yes

Dear reviewer, please state whether `CC(C)(C)c1ccc(-c2cc3c4c(c2)CCc2cc(-c5ccc(C(C)(C)C)cc5)cc(c2-4)CC3)cc1` has photoluminescence quantum yield strictly beneath 0.4.
No

Is the reported photoluminescence quantum yield for `CN(C)c1ccc(/C=C/c2nc3c4ccccc4c4ccccc4c3[nH]2)cc1` strictly below 0.4?
Yes

Please determine if `N#Cc1c(C#N)c(-n2c3ccccc3c3ccccc32)c(-n2c3ccccc3c3ccccc32)c(-n2c3ccccc3c3ccccc32)c1-n1c2ccccc2c2ccccc21` is below 0.4 in terms of photoluminescence quantum yield.
No

New cases:
Decide: photoluminescence quantum yield of `O=C(O)c1ccc2ccc3cccc4ccc1c2c34` strictly below 0.4?
No

I wonder whether `CCCCCCCCC1(CCCCCCCC)c2ccccc2-c2ccc(N(c3ccc(-n4c5ccccc5c5ccccc54)cc3)c3ccc4c(c3)C(CCCCCCCC)(CCCCCCCC)c3ccccc3-4)cc21` has photoluminescence quantum yield below 0.4. Can you tell?
Yes

Hi there! Is photoluminescence quantum yield for `CC(C)(C)c1cc2c(c(C(C)(C)C)c1)O[B-](F)(F)[n+]1c-2nc(-c2ccccc2)c2cc(Cl)ccc21` below 0.4, do you know?
Yes

For this compound, is photoluminescence quantum yield lower than 0.4? `COc1ccc2c(c1)c1cc(OC)ccc1n2-c1ccc2c(c1)-c1cc(-n3c4ccc(OC)cc4c4cc(OC)ccc43)ccc1P2(=O)c1ccccc1`
No

----------
assay_text: photoluminescence quantum yield (fraction); solvent given as SMILES
condition_details: in CO
The reader will find reported photoluminescence quantum yield values listed item by item below.
Enter the number alone.

Could you tell me which photoluminescence quantum yield is on file for `Cc1cc(C)c(B(c2cc(-c3ccccc3)sc2-c2sc(-c3ccccc3)cc2P(=O)(c2ccccc2)c2ccccc2)c2c(C)cc(C)cc2C)c(C)c1` ?
0.75

Continuing:
Could you share which photoluminescence quantum yield value was measured for `Oc1cccc(-c2nc(-c3ccccc3)c(-c3ccccc3)[nH]2)c1` ?
0.24

// query photoluminescence quantum yield value for entry `Oc1ccc(-c2nc(-c3ccccc3)c(-c3ccccc3)[nH]2)cc1`
0.18

----------
Entries and their photoluminescence quantum yield
assay_text: photoluminescence quantum yield (fraction); solvent given as SMILES
condition_details: in CCO

Please review the entries below; each comes with its answer.
Which photoluminescence quantum yield reading was recorded for the compound `Nc1ccc2nc3c4ccccc4c(=[NH2+])cc-3oc2c1` ?
0.582

Which photoluminescence quantum yield is reported for this compound? `O=C(c1ccc(N(c2ccccc2)c2ccccc2)cc1)[C@H]1[C@H](c2ccc(F)cc2)C[C@](O)(c2ccccn2)C[C@]1(O)c1ccccn1`
0.01

Reported photoluminescence quantum yield, compound `O=C1NC(=O)C(c2c[nH]c3ccccc23)=C1c1c[nH]c2ccccc12` : ____
0.003

Please report the recorded photoluminescence quantum yield for `CCOC(=O)c1sc(SC)c2c(=O)[nH]nnc12` .
0.023

More entries:
Find the recorded photoluminescence quantum yield belonging to `CCOC(=O)c1cc(C(=O)OCC)c2cc(NC(=O)C(F)(F)F)ccc2n1` and report it.
0.34

Need photoluminescence quantum yield of `CC[N+](CC)=c1ccc2c(-c3ccccc3C(=O)O)c3c(=O)oc4c5c6c(cc4c3oc-2c1)CCCN6CCC5` , thanks.
0.01

I would be grateful if you could share the reported photoluminescence quantum yield for `CCN(CC)c1ccc2cc(/C=C(\C#N)c3nc4ccccc4s3)c(=O)oc2c1` .
0.0048

Request the reported photoluminescence quantum yield associated with `CC(=O)c1c2c(cc3cc(N(C)C)ccc13)CCC2`
0.03

----------
assay_text: photoluminescence quantum yield (fraction); solvent given as SMILES
condition_details: in CS(C)=O
readout: photoluminescence quantum yield
No unit in the answer, please; the number alone is enough.

Quick check: photoluminescence quantum yield of N#CC1=C(N)n2c(=O)c3ccccc3c(=O)n2C1c1cccs1 (stereo not drawn) ?
0.08

Given `CCN(CC)c1ccc2cc(/C=C(\C#N)c3nc4ccccc4s3)c(=O)oc2c1` , state its recorded photoluminescence quantum yield.
0.0104

May I ask what photoluminescence quantum yield has been recorded for `Nc1ccccc1C(=O)O` ?
0.64

----------
assay_text: photoluminescence quantum yield (fraction); solvent given as SMILES
condition_details: in ClCCl
The entries below come with measured photoluminescence quantum yield values attached.
Enter the number alone.

Here is how some compounds turned out for photoluminescence quantum yield.
GET /values?readout=photoluminescence quantum yield&item= `CCCCCCc1cc2c3c(c1)c(=C1c4ccccc4Sc4ccccc41)c1cc(CCCCCC)cc4c1N3c1c(cc(CCCCCC)cc1c4=C1c3ccccc3Sc3ccccc31)c2=C1c2ccccc2Sc2ccccc21`
0.57

# query: photoluminescence quantum yield of entry `COc1ccc(C#Cc2c(C#Cc3ccc(OC)cc3)c(C#Cc3ccc(OC)cc3)c(C#Cc3ccc(OC)cc3)c(C#Cc3ccc(OC)cc3)c2C#Cc2ccc(OC)cc2)cc1`
0.55

Entry `COc1ccc(/C=C/C(=O)c2ccccc2O)cc1OC` has what photoluminescence quantum yield?
0.037

Dear colleague, I am looking for the recorded photoluminescence quantum yield of the following compound: `COc1cc2c(cc1OC)C1=C[C@H](c3ccccc3)C3(C(C#N)=C(C#N)N1CC2)c1ccccc1-c1ccccc13`
0.00173

I'd like to know its photoluminescence quantum yield. The compound in question is `CC1=CC(C)=[N+]2C1=Cc1cccn1[B-]2(F)F`
0.87

Report photoluminescence quantum yield for `Cc1ccc(-n2c(-c3ccccc3O)nc(-c3ccccc3O)c2-c2ccccc2O)cc1` please.
0.37

Which value of photoluminescence quantum yield has been reported for `O=c1c2cc(C#Cc3ccc(Cl)cc3)ccc2nc2ccc(C#Cc3ccc(Cl)cc3)cn12` in the records?
0.33

What photoluminescence quantum yield value was documented for this compound, `C(=C\c1ccc(/C=C/c2ccc(N(c3ccccc3)c3ccccc3)cc2)cc1)/c1ccc(/C=C/c2ccc(N(c3ccccc3)c3ccccc3)cc2)cc1` ?
0.84

Continuing:
Would you mind telling me what photoluminescence quantum yield value was observed for `CC1=C(c2ccccc2)C(C)=[N+]2C1=C(c1c(-c3ccccn3)nc3ccccn13)c1c(C)c(-c3ccccc3)c(C)n1[B-]2(F)F` ?
0.785

Can you share its photoluminescence quantum yield? I mean this compound: `Brc1ccc(N(c2ccc(/C=C/c3ccncn3)cc2)c2ccc(/C=C/c3ccncn3)cc2)cc1`
0.69

Give the measured photoluminescence quantum yield of `CC(C)[Si]1(C(C)C)c2cc(C#N)ccc2-c2ccc(N(c3ccccc3)c3ccccc3)cc21` .
0.8

I am curious: what photoluminescence quantum yield value has been reported for `N#Cc1ccc(C#Cc2ccc3ccc4ccc(C#Cc5ccc(C#N)cc5)c5ccc2c3c45)cc1` ?
0.732

Item under review: `CC(C)(C)c1ccc2c(c1)c1ncncc1c1c3ccccc3sc21` . Reported photoluminescence quantum yield?
0.1
